# System: MOLT-4 leukemia
# assay.protocol: NCI tumour cell line growth inhibition, 48 h
Reported TGI by item:
metric: TGI (µM)

structure_smiles=O=C(Nc1ccc(Cl)c(Cl)c1)NS(=O)(=O)c1cnccc1Oc1ccc(F)cc1 metric=TGI op== reported_value=8.58
structure_smiles=C=Cc1ccccc1C1(O)C=CC(OC)(OC)C=C1 metric=TGI op== reported_value=10.6
structure_smiles=CN1/C(=C\C=C\C2=[N+](C)c3ccccc3C2(C)C)C(C)(C)c2ccccc21 metric=TGI op== reported_value=1.87
structure_smiles=Cn1c2ccccc2c(=O)c2c(O)cc3c(c21)C=CC1(CCCCC1)O3 metric=TGI op=> reported_value=10
structure_smiles=CCOC(=O)/C=C(\C(=O)OCC)n1ccc(=O)n(Cc2cn(COCCOC(C)=O)nn2)c1=O metric=TGI op== reported_value=39.3

====

Reported TGI by item:
# Tested on: SNB-19 CNS
# assay.protocol: NCI tumour cell line growth inhibition, 48 h
metric: TGI

compound="CC12CCCC3(CC(=O)C(C)(C)C3C(=O)C1)C2 (stereo unspecified)" experimental_target="SNB-19 CNS" reported_value="> 100 µM"
compound="C[C@H]1CCCC(O)C(O)[C@@H]2C[C@H](O[Si](C)(C)C(C)(C)C)C[C@H]2[C@H](O[Si](C)(C)C(C)(C)C)C(O)C(O)C(=O)O1 (stereo partly specified)" experimental_target="SNB-19 CNS" reported_value="46.7 µM"
compound=CCCCCCCCCc1nn2c(Cc3ccccc3)nnc2s1 experimental_target="SNB-19 CNS" reported_value="36.1 µM"
compound=COc1ccc(NC(=S)NC(=O)c2ccc3c(c2)Sc2ccccc2O3)c([N+](=O)[O-])c1 experimental_target="SNB-19 CNS" reported_value="83.6 µM"
compound=C/C(=N\NC(=O)CC#N)c1c(O)cc(C)oc1=O experimental_target="SNB-19 CNS" reported_value="> 100 µM"
compound=NS(=O)(=O)c1cccc(NC(=S)NC(=O)Nc2ccc(Cl)c(Cl)c2)c1 experimental_target="SNB-19 CNS" reported_value="58.2 µM"
compound=COC(=O)C1=Nc2c(C)nn(-c3ccccc3)c2N=C(c2ccccc2)C1 experimental_target="SNB-19 CNS" reported_value="> 10 µM"
compound=Cn1c2ccccc2c(=O)c2c(O)cc3c(c21)C=CC1(CCCCC1)O3 experimental_target="SNB-19 CNS" reported_value="> 10 µM"
compound=CC(C)(Oc1ccc(/C=C/C(=O)c2ccc(Cl)cc2)cc1)C(=O)Nc1c(Cl)cccc1Cl experimental_target="SNB-19 CNS" reported_value="> 100 µM"
compound="C[C@H]1SC(c2ccc(Cl)cc2Cl)N(NC(=O)c2ccncc2)C1=O (stereo partly specified)" experimental_target="SNB-19 CNS" reported_value="> 100 µM"
compound="CC(=O)O[C@H]1CCc2c(cc(N)c3c2C(=O)C[C@]2(C)C([C@H](C)CCCC(C)C)CCC32C)C1(C)C (stereo partly specified)" experimental_target="SNB-19 CNS" reported_value="> 100 µM"
compound="O=C1CSC2=NC3=C(COC/C3=C\\c3ccc(Br)cc3)C(c3ccc(Br)cc3)N12 (stereo unspecified)" experimental_target="SNB-19 CNS" reported_value="> 100 µM"
compound=CC(=O)c1ccc(O)c(CN(C2CCCCC2)C2CCCCC2)c1O experimental_target="SNB-19 CNS" reported_value="> 100 µM"
compound=CCOC(=O)/C(C#N)=C\C=C(/Cl)c1ccc(Cl)cc1 experimental_target="SNB-19 CNS" reported_value="46.4 µM"
compound="O=C(O)c1ccc(C2C(=O)N[C@@H]3CCC[C@H]23)cc1 (stereo partly specified)" experimental_target="SNB-19 CNS" reported_value="> 100 µM"
compound=CC(NC(=O)N(C)C)NC(=O)N(C)C experimental_target="SNB-19 CNS" reported_value="> 10 µM"
compound=COC(=O)C1(C(=O)OC)CC(=O)c2cc3c(cc2-c2c(cc(OC)c(OC)c2OC)C1)OCO3 experimental_target="SNB-19 CNS" reported_value="> 211 µM"
compound=O=[N+]([O-])c1ccc(-c2ccc(-c3csc(Nc4ccccc4)n3)o2)cc1 experimental_target="SNB-19 CNS" reported_value="> 65.8 µM"
compound=c1ccc2[nH]c(-c3ccc(Nc4nc(N5CCCCC5)nc(N5CCOCC5)n4)cc3)nc2c1 experimental_target="SNB-19 CNS" reported_value="81.9 µM"
compound=CCNC(=O)COc1ccc(Cl)cc1Cl experimental_target="SNB-19 CNS" reported_value="> 100 µM"
compound=O=c1cc(-c2ccccc2)oc2c(-c3cc(Cl)cc4c(=O)cc(-c5ccccc5)oc34)cc(Cl)cc12 experimental_target="SNB-19 CNS" reported_value="> 100 µM"
compound="COc1ccc(C2c3cc4c(cc3OC(N3CCOCC3)C2C)OCO4)c(OC)c1OC (stereo unspecified)" experimental_target="SNB-19 CNS" reported_value="39.1 µM"
compound="CC1(C)[C@H]2CC[C@@]13C(=O)N1C(=O)O[C@@H]([C@H]1Cl)C(Cl)(COCc1ccccc1)C(=O)OCCO[C@H]3C2 (stereo partly specified)" experimental_target="SNB-19 CNS" reported_value="> 100 µM"
compound=Nc1ccc(/C=C/C(=O)NCc2cc3cc(-c4ccc(C(=O)N5CCC(F)(F)CC5)cc4)cc(-c4ccc(F)cc4)c3o2)cn1 experimental_target="SNB-19 CNS" reported_value="> 100 µM"
compound="C=C1C(=O)O[C@H]2[C@H]1CC/C(COC(=O)NCC(C)c1ccc(CC(C)C)cc1)=C\\CC[C@@]1(C)O[C@@H]21 (stereo partly specified)" experimental_target="SNB-19 CNS" reported_value="7.95 µM"
compound=CN(C)C(=S)/N=c1\ssc(=S)n1Cc1ccncc1 experimental_target="SNB-19 CNS" reported_value="> 100 µM"
compound=Cc1ccc(/C=C2\Cc3c(C)cc(C)cc3C2=O)c(C(=O)O)c1 experimental_target="SNB-19 CNS" reported_value="> 100 µM"
compound=N#CNC(N)=Nc1ccc(Cl)cc1 experimental_target="SNB-19 CNS" reported_value="> 100 µM"
compound=O=C(/C=C/c1ccccc1)c1ccc(NCc2nc3ccccc3[nH]2)cc1 experimental_target="SNB-19 CNS" reported_value="15.9 µM"
compound=c1c[nH]c(CN2CCOCC2)n1 experimental_target="SNB-19 CNS" reported_value="> 100 µM"
compound=O=C(N/N=C/c1ccccc1O)c1ccccc1 experimental_target="SNB-19 CNS" reported_value="> 100 µM"
compound=CCON1CC(C(=O)OC)=C(O)C1=O experimental_target="SNB-19 CNS" reported_value="> 100 µM"
compound=CC(=O)OC(Cn1cncn1)(Cn1cncn1)c1ccc(Cl)cc1Cl experimental_target="SNB-19 CNS" reported_value="> 100 µM"
compound=Cc1c(C(=O)O)oc2ccc([N+](=O)[O-])cc12 experimental_target="SNB-19 CNS" reported_value="> 100 µM"
compound=COc1ccc(C(=O)NCCN(C)C)c2nc3ccccc3nc12 experimental_target="SNB-19 CNS" reported_value="> 53 µM"
compound=O=C(N/N=C/c1cccc(F)c1)c1ccncc1 experimental_target="SNB-19 CNS" reported_value="> 100 µM"
compound=CNC(=O)CCCNC(=O)CCCC(=O)N(C)C experimental_target="SNB-19 CNS" reported_value="> 100 µM"
compound="COc1cc2c(cc1OC)C(C(=O)c1cccc(OC)c1OC)C(=O)N(C)CC2 (stereo unspecified)" experimental_target="SNB-19 CNS" reported_value="> 100 µM"
compound=Cc1ccc(C2=CC(=O)/C(=C\C(=O)c3ccc(Cl)cc3)O2)cc1 experimental_target="SNB-19 CNS" reported_value="> 100 µM"
compound=CN(C)C(=O)O[C@H]1CN[C@H](C#Cc2cc3ncnc(Nc4ccc(OCc5cccc(F)c5)c(Cl)c4)c3s2)C1 experimental_target="SNB-19 CNS" reported_value="> 25 µM"
compound=O=C(N[C@@H](C[Se][Se]C[C@H](NC(=O)c1ccc(Br)cc1F)C(=O)O)C(=O)O)c1ccc(Br)cc1F experimental_target="SNB-19 CNS" reported_value="> 100 µM"

Reference source for all entries: PubChem BioAssay (NCI)
